experiment: log P by reversed-phase HPLC (EEC Directive 79/831 Annex V.A8); assay type: physicochemical; settings: pH 2.7
PARAMETER MEASURED: logP [a] = log P (HCOOH)
Give a plain numeric answer without units written out.

The following compounds have reported results that may help.
* Clc1ccc2nc(-c3cncnc3)cnc2c1 [Example I-19] | 2.01
* CC[S+]([O-])c1ccccc1-c1cnc2cc(C(F)(F)F)ccc2n1 (centres unmarked) [Example I-15] | 2.79

Problem: Given the compound Cc1ccsc1-c1cnc2ccc(C(F)(F)F)cc2n1 [Example I-43] , what is its reported logP [a] = log P (HCOOH)?
Solution: 4.65

Problem: Given the compound Cc1ccc(-c2cnc3ccc(C(F)(F)F)cc3n2)c(F)c1 [Example I-51] , what is its reported logP [a] = log P (HCOOH)?
Solution: 4.97

Problem: Given the compound Cc1cnccc1-c1nc2cc(C(F)(F)F)ccc2nc1Cl [Example I-38] , what is its reported logP [a] = log P (HCOOH)?
Solution: 2.88
